biological target: human serotonin transporter (SERT) (Homo sapiens); experiment: NIH-PDSP transporter binding assay, SERT (3H-Citalopram); conditions: Table 4; N=4 determinations; significant inhibition >50%; negative = stimulation of binding
Sequence (P31645 whole entry): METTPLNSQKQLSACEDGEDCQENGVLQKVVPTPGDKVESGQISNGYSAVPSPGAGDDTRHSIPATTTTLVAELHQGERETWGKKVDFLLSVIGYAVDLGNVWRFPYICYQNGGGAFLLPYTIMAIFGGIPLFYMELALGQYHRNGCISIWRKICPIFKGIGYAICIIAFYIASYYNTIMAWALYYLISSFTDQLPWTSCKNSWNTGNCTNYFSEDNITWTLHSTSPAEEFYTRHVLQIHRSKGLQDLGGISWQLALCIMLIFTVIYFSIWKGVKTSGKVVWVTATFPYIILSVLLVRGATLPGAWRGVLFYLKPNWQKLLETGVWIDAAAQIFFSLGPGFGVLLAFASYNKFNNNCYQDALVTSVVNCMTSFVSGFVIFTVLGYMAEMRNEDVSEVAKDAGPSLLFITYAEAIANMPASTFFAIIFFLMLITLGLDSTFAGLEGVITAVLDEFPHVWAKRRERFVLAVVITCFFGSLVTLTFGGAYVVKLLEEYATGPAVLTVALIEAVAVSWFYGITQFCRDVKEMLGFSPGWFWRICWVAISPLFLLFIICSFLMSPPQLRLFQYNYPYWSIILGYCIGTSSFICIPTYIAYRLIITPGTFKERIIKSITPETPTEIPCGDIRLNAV
MEASURED PARAMETER: mean % inhibition SERT

Below are worked cases with known answers.
{"COMPOUND": "FC(F)(F)c1ccc(OC(CN2CCN(c3cccc(Cl)c3)CC2)c2ccccc2)cc1 (stereo not shown) [Compound 3]", "RESULT": "22.0%"}
{"COMPOUND": "Fc1ccc(OC(CCN2CCN(c3ccccc3)CC2)c2ccccc2)cc1 (stereo not shown) [Compound 16b]", "RESULT": "62.0%"}

stdin: Recorded mean % inhibition SERT of FC(F)(F)c1ccc(OC(CCN2CCN(c3ccccc3)CC2)c2ccccc2)cc1 (stereo not shown) [Compound 2b] , please.
stdout: 67.0%

stdin: Could you do the same for Fc1ccc(OC(CN2CCN(c3ccccc3)CC2)c2ccccc2)cc1 (stereo not shown) [Compound 1] , please?
stdout: 12.0%

---

Biological target: serotonin receptor 5-HT1A (Homo sapiens, UniProt P08908)
Sequence (P08908 1-422): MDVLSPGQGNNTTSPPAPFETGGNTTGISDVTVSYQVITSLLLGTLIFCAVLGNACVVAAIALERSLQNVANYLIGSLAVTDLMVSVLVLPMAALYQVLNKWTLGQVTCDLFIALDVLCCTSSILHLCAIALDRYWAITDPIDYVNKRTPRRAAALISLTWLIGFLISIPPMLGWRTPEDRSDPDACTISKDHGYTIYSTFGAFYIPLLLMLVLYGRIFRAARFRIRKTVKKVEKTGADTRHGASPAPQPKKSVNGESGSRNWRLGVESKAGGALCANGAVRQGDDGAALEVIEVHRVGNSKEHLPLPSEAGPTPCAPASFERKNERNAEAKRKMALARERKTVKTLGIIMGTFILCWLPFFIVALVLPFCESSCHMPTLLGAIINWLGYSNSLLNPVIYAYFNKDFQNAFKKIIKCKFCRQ
Test: NIH-PDSP binding assay, 5-HT1A (3H-8-OH-DPAT)
Conditions: Table 4; N=4 determinations; significant inhibition >50%; negative = stimulation of binding
MEASURED PARAMETER: mean % inhibition 5-HT1A (%)
Give the value, in units of %, as a plain number.

{"MOLECULE": "FC(F)(F)c1ccc(OC(CCN2CCN(c3ccccc3)CC2)c2ccccc2)cc1 (stereo not shown)", "MEASURED PARAMETER": "mean % inhibition 5-HT1A", "NUMERIC VALUE": 91.0}
{"MOLECULE": "Fc1ccc(OC(CCN2CCN(c3ccccc3)CC2)c2ccccc2)cc1 (stereo not shown) [Compound 16b]", "MEASURED PARAMETER": "mean % inhibition 5-HT1A", "NUMERIC VALUE": 100.0}
{"MOLECULE": "Fc1ccc(OC(CN2CCN(c3ccccc3)CC2)c2ccccc2)cc1 (stereo not shown)", "MEASURED PARAMETER": "mean % inhibition 5-HT1A", "NUMERIC VALUE": 98.0}

stdin: So what mean % inhibition 5-HT1A did FC(F)(F)c1ccc(OC(CN2CCN(c3cccc(Cl)c3)CC2)c2ccccc2)cc1 (stereo not shown) get with serotonin receptor 5-HT1A (Homo sapiens, UniProt P08908)?
stdout: 71.0

---

target: serotonin receptor 5-HT2A (Homo sapiens, UniProt P28223); assay: NIH-PDSP binding assay, 5-HT2A (3H-ketanserin); details: Table 5; determined only for % inhibition >50%
Sequence (P28223 whole entry): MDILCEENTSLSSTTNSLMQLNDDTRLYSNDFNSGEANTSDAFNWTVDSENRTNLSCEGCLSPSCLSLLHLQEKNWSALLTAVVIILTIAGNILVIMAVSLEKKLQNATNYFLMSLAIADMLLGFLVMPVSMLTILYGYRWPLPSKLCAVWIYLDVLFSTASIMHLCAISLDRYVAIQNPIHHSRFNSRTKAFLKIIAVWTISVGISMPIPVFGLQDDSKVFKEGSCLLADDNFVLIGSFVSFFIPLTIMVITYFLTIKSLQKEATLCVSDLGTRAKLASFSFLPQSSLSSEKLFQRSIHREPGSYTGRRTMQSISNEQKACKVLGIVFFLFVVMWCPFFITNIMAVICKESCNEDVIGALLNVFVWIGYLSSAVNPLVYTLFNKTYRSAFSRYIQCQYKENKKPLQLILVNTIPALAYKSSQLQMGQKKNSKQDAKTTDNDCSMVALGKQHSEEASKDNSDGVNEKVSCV
MEASURED PARAMETER: Ki

{"MOLECULE": "FC(F)(F)c1ccc(OC(CCN2CCN(c3ccccc3)CC2)c2ccccc2)cc1 (centres unmarked) [Compound 2b]", "Ki": "195 nM"}

stdin: So what Ki did Fc1ccc(OC(CN2CCN(c3ccccc3)CC2)c2ccccc2)cc1 (centres unmarked) [Compound 1] get with serotonin receptor 5-HT2A (Homo sapiens, UniProt P28223)?
stdout: 3490 nM

---

target: serotonin receptor 5-HT1A (Homo sapiens, UniProt P08908); experiment: NIH-PDSP binding assay, 5-HT1A (3H-8-OH-DPAT); details: Table 8, Homologues Type II (Aminopropane Derivatives)
MEASURED PARAMETER: pKi
Just the number, please; pKi means minus log10 of the concentration in mol/L.

Below are worked cases with known answers.
{"MOLECULE": "O=C(CCCN1CCN(CCC(Oc2ccc(F)cc2)c2ccccc2)CC1)c1ccc(F)cc1 (centres unmarked) [Compound 32b]", "pKi": 5.58}
{"MOLECULE": "COc1ccccc1N1CCN(CCC(Oc2ccc(C(F)(F)F)cc2)c2ccccc2)CC1 (centres unmarked) [Compound 23b]", "pKi": 7.38}
{"MOLECULE": "FC(F)(F)c1ccc(OC(CCN2CCN(c3cccc(C(F)(F)F)c3)CC2)c2ccccc2)cc1 (centres unmarked) [Compound 21b]", "pKi": 6.71}
{"MOLECULE": "Fc1ccc(OC(CCN2CCN(c3cccc(C(F)(F)F)c3)CC2)c2ccccc2)cc1 (centres unmarked) [Compound 20b]", "pKi": 7.70}

stdin: Recorded pKi of COc1ccccc1N1CCN(CCC(Oc2ccc(F)cc2)c2ccccc2)CC1 (centres unmarked) [Compound 22b] , please.
stdout: 8.40

stdin: Could you do the same for CN1CCN(CCC(Oc2ccc(C(F)(F)F)cc2)c2ccccc2)CC1 (centres unmarked) [Compound 27b] , please?
stdout: 5.02

stdin: Could you do the same for O=C(c1ccc(F)cc1)C1CCN(CCC(Oc2ccc(F)cc2)c2ccccc2)CC1 (centres unmarked) [Compound 28b] , please?
stdout: 6.63

stdin: Could you do the same for Fc1ccc2c(C3CCN(CCC(Oc4ccc(C(F)(F)F)cc4)c4ccccc4)CC3)noc2c1 (centres unmarked) [Compound 31b] , please?
stdout: 6.38

---

target: UniProt:P08908; experiment: NIH-PDSP binding assay, 5-HT1A (3H-8-OH-DPAT); conditions: Table 8, Homologues Type II (Aminopropane Derivatives)
Decision: Ki beneath 300 nM gives Y; Ki meeting or exceeding 300 nM gives N.

Example results:
{"COMPOUND": "Fc1ccc(OC(CCN2CCN(c3ncccn3)CC2)c2ccccc2)cc1 (stereo not shown) [Compound 24b]", "DISCRETE LABEL": "N"}
{"COMPOUND": "FC(F)(F)c1ccc(OC(CCN2CCN(c3ccccc3)CC2)c2ccccc2)cc1 (single isomer, unassigned) [Compound 17b]", "DISCRETE LABEL": "N"}
{"COMPOUND": "FC(F)(F)c1ccc(OC(CCN2CCN(c3ncccn3)CC2)c2ccccc2)cc1 (stereo not shown) [Compound 25b]", "DISCRETE LABEL": "N"}
{"COMPOUND": "FC(F)(F)c1ccc(OC(CCN2CCN(c3cccc(Cl)c3)CC2)c2ccccc2)cc1 (stereo not shown) [Compound 19b]", "DISCRETE LABEL": "N"}
{"COMPOUND": "Fc1ccc(OC(CCN2CCN(c3cccc(Cl)c3)CC2)c2ccccc2)cc1 (stereo not shown) [Compound 18b]", "DISCRETE LABEL": "Y"}
{"COMPOUND": "CN1CCN(CCC(Oc2ccc(F)cc2)c2ccccc2)CC1 (stereo not shown) [Compound 26b]", "DISCRETE LABEL": "N"}
{"COMPOUND": "Fc1ccc(OC(CCN2CCC(c3noc4cc(F)ccc34)CC2)c2ccccc2)cc1 (stereo not shown) [Compound 30b]", "DISCRETE LABEL": "Y"}
{"COMPOUND": "Fc1ccc(OC(CCN2CCN(c3ccccc3)CC2)c2ccccc2)cc1 (stereo not shown) [Compound 16b]", "DISCRETE LABEL": "Y"}

stdin: Below 300 nM on Ki? Entry O=C(CCCN1CCN(CCC(Oc2ccc(C(F)(F)F)cc2)c2ccccc2)CC1)c1ccc(F)cc1 (stereo not shown) [Compound 33b]
stdout: N

---

Target: UniProt:P28223
Experiment: NIH-PDSP binding assay, 5-HT2A (3H-ketanserin)
Conditions: Table 8, Homologues Type II (Aminopropane Derivatives); — = No significant inhibition
Protocol: Biological Evaluation of selected compounds was done through the National Institutes of Health Psychoactive Drug Screening Program (NIH-PDSP). […] For the 3H-ligands 1-2 nM final concentration of radioligand was used. […] Samples were counted in a 96-well counter using 100 μl of scintillant/well. The Ki value of the reference compound was calculated using the LIGAND Program (Munson and Rodbard, 1980). The percent inhibition was calculated using the following formula: […]
In this section we review reported Ki values for a set of compounds.

Below are worked cases with known answers.
{"COMPOUND": "Fc1ccc(OC(CCN2CCN(c3cccc(Cl)c3)CC2)c2ccccc2)cc1 (centres unmarked) [Compound 18b]", "Ki": "94 nM"}
{"COMPOUND": "Fc1ccc(OC(CCN2CCN(c3ccccc3)CC2)c2ccccc2)cc1 (centres unmarked) [Compound 16b]", "Ki": "76 nM"}

stdin: So what Ki did Fc1ccc(OC(CCN2CCN(c3ncccn3)CC2)c2ccccc2)cc1 (centres unmarked) [Compound 24b] get with UniProt:P28223?
stdout: 853 nM

stdin: Could you do the same for COc1ccccc1N1CCN(CCC(Oc2ccc(C(F)(F)F)cc2)c2ccccc2)CC1 (centres unmarked) [Compound 23b] , please?
stdout: 1420 nM

stdin: Could you do the same for FC(F)(F)c1ccc(OC(CCN2CCN(c3ncccn3)CC2)c2ccccc2)cc1 (centres unmarked) [Compound 25b] , please?
stdout: 1790 nM
